Documented GI50 across a set of compounds
- System: OVCAR-4
- protocolSummary: NCI tumour cell line growth inhibition, 48 h
Activity calls are given as the source filed them. Cut-off read from the data, not from the text of the source: active = GI50 up to about 1.1 µM and inactive = higher.
propertyLabel: GI50

1. CCCCC(O)(c1ccccc1)C(O)(c1ccccc1)c1c(F)c(F)c(F)c(F)c1F (stereo unspecified): 44.4 µM (inactive)
2. N#CC1=C(N)OC2=C(CSc3ccccc32)C1c1ccc(Br)cc1 (stereo unspecified): 5.79 µM (inactive)
3. c1ccc2sc(SCSc3nc4ccccc4s3)nc2c1: > 100 µM (inactive)
4. COc1cc2c(cc1OC)C1=CCC(c3ccccc3)[N+]1(C)CC2 (stereo unspecified): > 100 µM (inactive)
5. N#CC(c1ccccc1)c1cccc2ccccc12 (stereo unspecified): 47.5 µM (inactive)
6. C/C(=C\CNc1ncnc2c1ncn2CCC#N)CO: > 100 µM (inactive)
7. COC(=O)[C@@H]1CN(C(=O)c2ccccc2)C(=O)N1: > 100 µM (inactive)
8. COc1cc(NC(C)=O)c2[nH]c3c(C)cc(NC(C)=O)c(C)c3c2c1: > 100 µM (inactive)
9. O=C1C2C3C=C4c5ccccc5N(c5ccccc5)C4(C2C(=O)N1c1ccc(Cl)cc1)[C@H]1C(=O)N(c2ccc(Cl)cc2)C(=O)[C@@H]31 (stereo partly specified): > 100 µM (inactive)
10. Cc1cccc(C)c1NC(=O)CCC(=O)CC(=O)C(C)C: > 100 µM (inactive)
11. COc1cc(OC)c(C(=O)c2cccs2)cc1N: > 100 µM (inactive)

====

- System: NCI-H23
- protocolSummary: NCI tumour cell line growth inhibition, 48 h
Calls of active or inactive are those of the source. Rule as the data show it: active = GI50 up to about 1.1 µM and inactive = higher.
Documented GI50 across a set of compounds
propertyLabel: GI50

1. CC(=O)Nc1c(Nc2ccccc2)[nH]c(C)nc1=S: > 100 µM (inactive)
2. COc1cc(CCc2cccnc2)cc(OC)c1OC: > 100 µM (inactive)
3. Cc1ccc(C(=O)/C=C2\Nc3ccccc3N=C2NC23CC4CC(CC(C4)C2)C3)cc1: > 10 µM (inactive)
4. O=c1oc2cc(O)ccc2cc1-c1nc2ccccc2o1: 32.6 µM (inactive)
5. O=C(C=P(c1ccccc1)(c1ccccc1)c1ccccc1)CC(=S)CC(=O)C=P(c1ccccc1)(c1ccccc1)c1ccccc1: 3.14 µM (inactive)

====

- Tested on: Malme-3M
- protocolSummary: NCI tumour cell line growth inhibition, 48 h
Calls of active or inactive are those of the source. No stated cut-off is given here; in the data, active = GI50 up to about 1.1 µM and inactive = higher.
Outcomes: y for active, n for inactive

1) CCOc1ccc(/C(Cl)=C(\C=O)c2ccc(OC)c(OC)c2)cc1OCC: n
2) COc1nn(Cc2ccccc2F)c2ccc([N+](=O)[O-])cc12: n
3) CN(C)CCCCCNc1c2ccccc2nc2cccc([N+](=O)[O-])c12: y

====

- Tested on: SN12C
- protocolSummary: NCI tumour cell line growth inhibition, 48 h
Calls of active or inactive are those of the source. No stated cut-off is given here; in the data, active = GI50 up to about 1.1 µM and inactive = higher.
Documented GI50 across a set of compounds
propertyLabel: GI50

1) CC(=O)OC1CC2OC(Cc3ccccc32)O1 (centres undefined): 64.1 µM (inactive)
2) COC(=O)c1ccc(/C=C2\Cc3ccccc3C2=O)cc1: > 100 µM (inactive)
3) CC(C)(C)C(=O)/C=C(\OB(F)F)C(C)(C)C: > 100 µM (inactive)
4) O=c1[nH]c(=O)n(C2OC(CO)C(O)C2O)c2c1CCCC2 (centres undefined): > 100 µM (inactive)
5) Cc1cc(C[C@H]2O[C@@H]3OC(C)(C)O[C@@H]3[C@H]3OC(C)(C)O[C@H]32)c2ccccc2n1: > 100 µM (inactive)
6) COc1cc(OCc2ccc3nc(-c4ccccc4)c(N)nc3c2)cc(OC)c1OC: 25.7 µM (inactive)
7) Oc1c2c(nc3cc4c(cc13)OCO4)-c1ccccc1CCC2: > 50 µM (inactive)
8) O=C(O)C1(Cc2ccc3c(c2)CCC3)Cc2ccccc2C1: > 100 µM (inactive)
9) COC(=O)C1=C(C(=O)OC)SC2(S1)C1=C(CCCC1)SC(C(=O)OC)=C2C(=O)OC: 2.76 µM (inactive)
10) CCc1ncc(CO)n1Cc1cccc2ccccc12: > 100 µM (inactive)
11) CCC(=O)NC(Nc1ccc(O)cc1)(C(F)(F)F)C(F)(F)F: > 100 µM (inactive)
12) O=S(=O)(CF)OCCCCOS(=O)(=O)CF: > 100 µM (inactive)
13) CC1=CC[C@@]2(C)[C@@H]([C@@H]1C)[C@H]1CC[C@@H]3[C@@]4(C)CC[C@H](O)C(C)(C)[C@@H]4CC[C@@]3(C)[C@]1(C)C[C@@H]2O: 6.61 µM (inactive)
14) CCC1(CC)C(=O)NC(=S)N=C1N: > 100 µM (inactive)

====

- Test system: LOX IMVI
- protocolSummary: NCI tumour cell line growth inhibition, 48 h
Calls of active or inactive are those of the source. Cut-off read from the data, not from the text of the source: active = GI50 up to about 1.1 µM and inactive = higher.
Documented GI50 across a set of compounds
propertyLabel: GI50

1. Cc1c(C)c2cc3c(=O)c(CCl)coc3c(C)c2oc1=O: > 100 µM (inactive)
2. O=c1c(C(c2cccc(C(c3c(O)oc4ccccc4c3=O)c3c(O)oc4ccccc4c3=O)c2)c2c(O)oc3ccccc3c2=O)c(O)oc2ccccc12: 18.7 µM (inactive)
3. CN(C)c1nc2n(CCO)ccnc-2c(=O)n1: > 100 µM (inactive)
4. Nn1c(SCC(=O)NCc2ccccc2)nc2ccccc2c1=O: 49 µM (inactive)
5. O=c1oc2cc(O)ccc2cc1-c1nc2ccccc2o1: 44.4 µM (inactive)
6. C[N+](C)(C)CC(=O)N/N=C(\CCC(=O)NCCc1ccccc1)CC(=O)c1ccccc1: > 100 µM (inactive)
7. O=c1[nH]c(NCc2ccncc2)nc2[nH]cnc12: > 100 µM (inactive)

====

- Test system: HCC 2998
- protocolSummary: NCI tumour cell line growth inhibition, 48 h
Activity calls are given as the source filed them. No stated cut-off is given here; in the data, active = GI50 up to about 1.1 µM and inactive = higher.
Outcomes: active, inactive

1) COc1ccc(C2CC3(c4ccccc4)ON=C(c4ccccc4)N3c3ccccc3S2)cc1 (stereo not drawn): inactive
2) COC(=O)C1=C(C(=O)OC)SC2(S1)C1=C(CCCC1)SC(C(=O)OC)=C2C(=O)OC: inactive
3) COC(=O)c1ccc(/C=C2\Cc3ccccc3C2=O)cc1: inactive
4) CCCC(=O)OCC1OC(n2cc(F)c(=O)[nH]c2=O)CC1O (stereo not drawn): active
5) c1ccc(COCC2OC3c4ccccc4COC3C2OCc2ccccc2)cc1 (stereo not drawn): inactive
6) COc1cc(OC)c2c(c1)OC(c1cccnc1)C(c1ccccc1)C2=O (stereo not drawn): inactive
7) O=c1c2c3ccccc3[nH]c2c2cccc3c2n1CCC3: inactive
8) CC1=NN(C(=O)CC(=O)Nc2cccc(Cl)c2)C(=O)C1/N=N/c1ccc(C(=O)O)cc1 (stereo not drawn): inactive
9) COC(=O)[C@@H]1COC(C(C)(C)C)N1C(=O)C(c1ccccc1)c1ccccc1 (stereo partly drawn): inactive
10) Cc1nc2ccc(NCCN(C)C)c3c(=O)c4cc(O)ccc4n1c23: active
11) COc1ccc(CCCNC(=O)c2cc(OC)c(OC)cc2CCO)cc1OC: inactive
12) O=P(O)(O)c1ccc(-c2ccc(I)cc2)cc1: inactive
13) CCOc1ccc(/C(Cl)=C(\C=O)c2ccc(OC)c(OC)c2)cc1OCC: inactive
14) CCN(CC)c1ccc2cc(-c3nnc(-c4ccccc4)[nH]3)c(=O)oc2c1: inactive
15) CC(C)OC(=O)C1Cc2c([nH]c3ccccc23)C(c2ccccc2)N1 (stereo not drawn): inactive
16) O=C(N/N=C/c1ccc([N+](=O)[O-])cc1)Nc1ccc(Br)cc1: inactive
17) CC1(C)C=[N+]([O-])C(C)(C)N1O: inactive
18) CCc1c(Cc2cc(C)cc(C)c2)n2c(nc1=O)SCC2CBr (stereo not drawn): inactive
